- Test system: TTK
- ASSAY_CONDITIONS: concentration: 1 μM,replicates: in singlicate; n = 1;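 note: KINOMEscan kinase panel screen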

SMILES_RECORD	TARGET_DESC	UNIT_OF_MEASURE	%Inh
Cl.Cl.NC[C@H](Cc1ccc(C(F)(F)F)cc1)NC(=O)c1cc(Br)c(-c2ccnc3[nH]ccc23)s1	TTK	%	10
C[C@H]1Oc2cc(cnc2N)-c2c(nn(C)c2C#N)CN(C)C(=O)c2ccc(F)cc21	TTK	%	7
Cc1n[nH]c2ccc(-c3cc(OC[C@@H](N)Cc4ccccc4)cnc3-c3ccoc3)cc12.O=C(O)C(F)(F)F.O=C(O)C(F)(F)F	TTK	%	0
CN(C)CCOc1ccc(-c2cc(-c3c[nH]nc3-c3ccccn3)ccn2)cc1	TTK	%	0
CNC(=O)c1ccccc1Sc1ccc2c(/C=C/c3ccccn3)n[nH]c2c1	TTK	%	0
O=C(NCCCN1CCOC1=O)c1cnc(NCc2cc(Cl)ccc2Cl)nc1NC1CCCC1	TTK	%	17
CCN(CC)CCCCNc1ncc2cc(-c3c(Cl)cccc3Cl)c(NC(=O)NC(C)(C)C)nc2n1	TTK	%	2
Cc1ccc2c(-c3ccncc3)c(-c3ccc(F)cc3)nn2c1.Cl	TTK	%	0

---

- Test system: ZAK
- ASSAY_CONDITIONS: concentration: 1 μM,replicates: in singlicate; n = 1
Consider the following compounds and their measured %Inh readings.
ASSAY_METRIC: %Inh

COMPOUND	TARGET_DESC	RESULT
CC(C)N1C(=O)Cc2cc(Nc3ncc(C(F)(F)F)c(NCc4cccc(S(C)(=O)=O)c4)n3)ccc21	ZAK	0%
CN(C)CCOc1ccc(-c2cc(-c3c[nH]nc3-c3ccccn3)ccn2)cc1	ZAK	60%
Cl.Cl.NC[C@H](Cc1ccc(C(F)(F)F)cc1)NC(=O)c1cc(Br)c(-c2ccnc3[nH]ccc23)s1	ZAK	0%
C[C@@H]1CCN(C(=O)CC#N)C[C@@H]1N(C)c1ncnc2[nH]ccc12	ZAK	0%
Cc1n[nH]c2ccc(-c3cc(OC[C@@H](N)Cc4ccccc4)cnc3-c3ccoc3)cc12.O=C(O)C(F)(F)F.O=C(O)C(F)(F)F	ZAK	0%
Cl.Cl.Nc1nc(-c2ccc3c(N)n[nH]c3c2)cc(N2CCCC(NC(=O)c3ccccc3)C2)n1 (centres unmarked)	ZAK	100%
Cc1occc1-c1nc(N)c(OC[C@@H](N)Cc2c[nH]c3ccccc23)cc1-c1cc2c(C)n[nH]c2cn1	ZAK	31%
Cc1cc(C(=O)Nc2ccc(Oc3ccc4nc(NC(=O)C5CC5)cn4n3)cc2)nn1-c1ccccc1	ZAK	48%
CNC(=O)c1ccccc1Sc1ccc2c(/C=C/c3ccccn3)n[nH]c2c1	ZAK	53%
COc1ccc(C[C@@H](CN)NC(=O)c2cc(Br)c(-c3ccnc4[nH]ccc34)s2)cc1.Cl.Cl	ZAK	0%
CCN(CC)CCOc1ccc(Nc2ncc3cc(-c4c(Cl)cccc4Cl)c(=O)n(C)c3n2)cc1	ZAK	94.2%
Cc1cc2cn[nH]c2cc1-c1cccc2c(N)c(C(N)=O)nnc12	ZAK	21%
CC(C)Nc1cc(-c2ccc3c(N)n[nH]c3c2)nc(N)n1	ZAK	0%
C[C@@H](Oc1cc(-c2cnn(C3CCNCC3)c2)cnc1N)c1c(Cl)ccc(F)c1Cl	ZAK	4%

---

Catalogue of %Inh readings, one per entry.
- Test system: MYLK
- ASSAY_CONDITIONS: concentration: 1 μM,replicates: in singlicate; n = 1
ASSAY_METRIC: %Inh (%)

COMPOUND	UNIT_OF_MEASURE	NUMERIC_VALUE
CC(C)N1C(=O)Cc2cc(Nc3ncc(C(F)(F)F)c(NCc4cccc(S(C)(=O)=O)c4)n3)ccc21	%	10
Cc1n[nH]c2ccc(-c3cc(OC[C@@H](N)Cc4ccccc4)cnc3-c3ccoc3)cc12.O=C(O)C(F)(F)F.O=C(O)C(F)(F)F [GSK507358]	%	14
CCN(CC)CCCCNc1ncc2cc(-c3c(Cl)cccc3Cl)c(NC(=O)NC(C)(C)C)nc2n1	%	4
C[C@@H](Oc1cc(-c2cnn(C3CCNCC3)c2)cnc1N)c1c(Cl)ccc(F)c1Cl	%	21
NC(=O)c1cc(-c2ccccc2)cc2c(C3CCNCC3)c[nH]c12 [GSK301362]	%	15
CC(C)Nc1cc(-c2ccc3c(N)n[nH]c3c2)nc(N)n1 [GSK2221681]	%	18
Cl.Cl.Nc1nc(-c2ccc3c(N)n[nH]c3c2)cc(N2CCCC(NC(=O)c3ccccc3)C2)n1 (centres unmarked) [GSK2286775]	%	11
CCn1c(-c2nonc2N)nc2c(C#CC(C)(C)O)nc(OCCN)cc21.Cl.Cl [GSK902056]	%	4
